# setup_conditions: in ethanol, 293.15 K
quantity: solubility (mole fraction)

Quick one: solubility (mole fraction) of CCOc1ccc2ccccc2c1C(=O)N[C@@H]1C(=O)N2[C@@H]1SC(C)(C)[C@@H]2C(=O)[O-].[Na+] ?
0.00032

====

# setup_conditions: in isopropanol, 293.15 K
quantity: solubility (mole fraction)
// print number alone

Quick one: solubility (mole fraction) of CCOc1ccc2ccccc2c1C(=O)N[C@@H]1C(=O)N2[C@@H]1SC(C)(C)[C@@H]2C(=O)[O-].[Na+] ?
0.000229

====

# setup_conditions: in acetonitrile, 288.15 K
quantity: solubility (mole fraction)

Quick one: solubility (mole fraction) of CCOc1ccc2ccccc2c1C(=O)N[C@@H]1C(=O)N2[C@@H]1SC(C)(C)[C@@H]2C(=O)[O-].[Na+] ?
4.09e-05

====

# setup_conditions: in n-butyl acetate, 318.15 K
quantity: solubility (mole fraction)

Quick one: solubility (mole fraction) of CCOc1ccc2ccccc2c1C(=O)N[C@@H]1C(=O)N2[C@@H]1SC(C)(C)[C@@H]2C(=O)[O-].[Na+] ?
0.000117

====

# setup_conditions: in acetonitrile, 318.15 K
quantity: solubility (mole fraction)

Quick one: solubility (mole fraction) of CCOc1ccc2ccccc2c1C(=O)N[C@@H]1C(=O)N2[C@@H]1SC(C)(C)[C@@H]2C(=O)[O-].[Na+] ?
0.000144

Cited source: BigSolDB 2.1
